Provide the reported inhibition at 1 µM of each item.
- Target Or System: human CHK1 (FL-CHK1) (Homo sapiens, UniProt O14757)
- Construct: C-terminally His-tagged full-length human CHK1 (FL-CHK1) was expressed using the baculovirus/insect cell system; made in house; host or cells: baculovirus/insect cell system
- Sequence (O14757 whole entry): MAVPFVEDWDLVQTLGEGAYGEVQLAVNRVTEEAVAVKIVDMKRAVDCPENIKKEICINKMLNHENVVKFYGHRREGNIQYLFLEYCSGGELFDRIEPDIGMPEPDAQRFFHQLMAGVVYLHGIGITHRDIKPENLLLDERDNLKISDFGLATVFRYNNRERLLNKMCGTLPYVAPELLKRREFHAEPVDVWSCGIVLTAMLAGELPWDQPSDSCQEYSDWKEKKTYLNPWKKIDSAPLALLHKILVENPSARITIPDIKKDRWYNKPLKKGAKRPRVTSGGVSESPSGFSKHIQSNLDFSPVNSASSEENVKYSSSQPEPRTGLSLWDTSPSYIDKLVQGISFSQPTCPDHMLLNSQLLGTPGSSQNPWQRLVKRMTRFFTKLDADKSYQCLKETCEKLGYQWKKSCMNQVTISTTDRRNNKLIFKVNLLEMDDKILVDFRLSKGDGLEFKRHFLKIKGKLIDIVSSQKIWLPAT
- Test: CHK1 coupled spectrophotometric assay
- Type: biochemical
- Reported Conditions: read-out: CHK1* (% inhibition)
Give just the numeric value; % need not be written.

## Input # lookup: inhibition at 1 µM of CNC(=O)c1ccc2[nH]c(-c3n[nH]c4cc(-c5ccc(O)cc5OC)ccc34)nc2c1 [Reference Example 25(g)]
## Output 21

## Input Now try CSc1cc(O)ccc1-c1ccc2c(-c3nc4ccccc4[nH]3)n[nH]c2c1 [Reference Example 24(k)] .
## Output 81

## Input Now try COc1cc(O)ccc1-c1ccc2c(-c3nc4cc(N(C)C)ccc4[nH]3)n[nH]c2c1 [Reference Example 25(h)] .
## Output 86

## Input Now try COc1cc(O)ccc1-c1ccc2c(-c3nc4c(N5CCN(C)CC5)cccc4[nH]3)n[nH]c2c1 [Reference Example 25(d)] .
## Output 87

## Input Now try COc1cc(O)ccc1-c1ccc2c(-c3nc4ccncc4[nH]3)n[nH]c2c1 [Reference Example 25(a)] .
## Output 49

----------
- Target Or System: unphosphorylated VEGF-R2Δ50 (Homo sapiens, UniProt P35968, DEL940-989/E990V)
- Sequence (P35968 with tags, fused parts or gaps DEL940-989/E990V limits assumed): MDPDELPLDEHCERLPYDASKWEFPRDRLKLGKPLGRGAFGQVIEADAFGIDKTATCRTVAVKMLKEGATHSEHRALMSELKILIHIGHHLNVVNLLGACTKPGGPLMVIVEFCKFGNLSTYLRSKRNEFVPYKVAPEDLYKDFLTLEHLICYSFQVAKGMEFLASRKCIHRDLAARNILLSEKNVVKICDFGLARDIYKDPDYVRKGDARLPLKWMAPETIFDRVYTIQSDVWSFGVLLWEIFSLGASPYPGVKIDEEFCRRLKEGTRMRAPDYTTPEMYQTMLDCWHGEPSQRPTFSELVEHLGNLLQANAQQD
- Test: biochemical
Assay Endpoint: pKi
Conceptually, pKi converts a concentration in mol/L into minus its log10.

## Input # lookup: pKi of CC(=O)NC(C(=O)Nc1cccc(C(=O)c2ccc3c(/C=C/c4ccccc4)n[nH]c3c2)c1)c1ccccc1 (stereo not shown)
## Output 9.14

----------
- Test: in vitro
- Format: in vitro ADME, human
- Reported Conditions: human liver microsomes, 5 µM test compound, 37 °C, 2 h
Label scheme, based on % remain (HLM, 2 h): lower segment (below 20%), middle segment (20% to below 50%), upper segment (50% or more)

## Input Class label required: COc1cccc(C(=O)Nc2cccc(C(=O)c3ccc4c(/C=C/c5ccccn5)n[nH]c4c3)c2)c1 [Reference Example 41(bb)]
## Output upper segment

## Input Now try CC(C)ONC(=O)c1ccccc1Sc1ccc2c(/C=C/c3ccccn3)n[nH]c2c1 [Reference Example 35(k)] .
## Output lower segment

## Input Now try CCCONC(=O)c1ccccc1Sc1ccc2c(/C=C/c3ccccn3)n[nH]c2c1 [Reference Example 35(t)] .
## Output lower segment

## Input Now try Cc1cc(C(=O)Nc2cc(C(=O)c3ccc4c(/C=C/c5ccccn5)n[nH]c4c3)ccc2C)n(C(C)C)n1 [Reference Example 41(kk)] .
## Output upper segment

## Input Now try C=CCNC(=O)c1ccccc1Sc1ccc2c(/C=C/c3ccccn3)n[nH]c2c1 [Reference Example 35(u)] .
## Output middle segment

## Input Now try CCn1nc(C)cc1C(=O)Nc1cccc(Oc2ccc3c(/C=C/c4ccccn4)n[nH]c3c2)c1 [Reference Example 31(d)] .
## Output upper segment

## Input Now try C#CCNC(=O)c1ccccc1Sc1ccc2c(/C=C/c3ccccn3)n[nH]c2c1 [Reference Example 35(cc)] .
## Output middle segment

## Input Now try CCCn1nc(C)cc1C(=O)Nc1cccc(C(=O)c2ccc3c(/C=C/c4ccccn4)n[nH]c3c2)c1 [Reference Example 41(r)] .
## Output upper segment

## Input Now try O=C(Nc1cccc(Cl)c1)c1ccccc1Sc1ccc2c(/C=C/c3ccccn3)n[nH]c2c1 [Reference Example 33(d)] .
## Output middle segment

## Input Now try CC(=O)c1ccc(C(=O)Nc2cccc(C(=O)c3ccc4c(/C=C/c5ccccn5)n[nH]c4c3)c2)s1 [Reference Example 41(e)] .
## Output middle segment

## Input Now try Cc1cc(C(=O)Nc2cccc(C(=O)c3ccc4c(/C=C/c5ccccn5)n[nH]c4c3)c2)n[nH]1 [Reference Example 41(g)] .
## Output upper segment

## Input Now try CCn1nc(C)cc1C(=O)Nc1cc(C(=O)c2ccc3c(/C=C/c4ccccn4)n[nH]c3c2)ccc1C [Reference Example 41(ee)] .
## Output middle segment

## Input Now try Cn1cccc1C(=O)NNC(=O)c1ccccc1Sc1ccc2c(/C=C/c3ccccn3)n[nH]c2c1 [Reference Example 35(e)] .
## Output middle segment

## Input Now try O=C(NCc1ccccc1F)c1ccccc1Sc1ccc2c(/C=C/c3ccccn3)n[nH]c2c1 [Reference Example 35(f)] .
## Output lower segment
